Parameter: zone of inhibition at 20 µg/disc. Scope: all listed entries.
# System: Escherichia coli
# PROTOCOL_DETAILS: Antimicrobial activity against Escherichia coli ATCC 25922 at 20 ug per disk after 18 to 24 hrs by agar diffusion assay
# Assay type: functional
# PROTOCOL_CONDITIONS: read-out: DIZ
MEASURED_QUANTITY: zone of inhibition at 20 µg/disc (mm)

1) N/C(=N/NC(CC(=O)c1ccc(-n2ccnc2)cc1)c1ccc(Br)cc1)c1ccccn1 (stereo not given); 6
2) N/C(=N/NC(CC(=O)c1ccc(-n2ccnc2)cc1)c1ccccc1F)c1ccccn1 (stereo not given); 7
3) N/C(=N/NC(CC(=O)c1ccc(-n2ccnc2)cc1)c1ccccc1Cl)c1ccccn1 (stereo not given); 6
4) N/C(=N/NC(CC(=O)c1ccc(-n2ccnc2)cc1)c1ccccc1Br)c1ccccn1 (stereo not given); 5
5) N/C(=N/NC(CC(=O)c1ccc(-n2ccnc2)cc1)c1ccc(Cl)cc1)c1ccccn1 (stereo not given); 8
